The next entries give measured IC50 for Acetylcholinesterase (Electrophorus electricus, UniProt O42275).

# Molecule, Assay target, IC50 (nM)
measured = [
    ("Nc1c2c(nc3c1C(c1ccc(Br)cc1)c1ccc(O)cc1O3)CCCC2 (racemic)", "Acetylcholinesterase (Electrophorus electricus, UniProt O42275)", 7),
    ("CN(C)c1ccc(C2c3ccc(O)cc3Oc3nc4c(c(N)c32)CCCC4)cc1 (racemic)", "Acetylcholinesterase (Electrophorus electricus, UniProt O42275)", 290),
    ("COc1ccc(C2c3ccc(O)cc3Oc3nc4c(c(N)c32)CCCC4)cc1 (racemic)", "Acetylcholinesterase (Electrophorus electricus, UniProt O42275)", 530),
    ("Nc1c2c(nc3c1C(c1ccccc1)c1ccc(O)cc1O3)CCCC2 (racemic)", "Acetylcholinesterase (Electrophorus electricus, UniProt O42275)", 550),
    ("Nc1c2c(nc3c1C(c1ccc(F)cc1)c1ccc(O)cc1O3)CCCC2 (racemic)", "Acetylcholinesterase (Electrophorus electricus, UniProt O42275)", 103),
    ("COc1cc(C2c3ccc(O)cc3Oc3nc4c(c(N)c32)CCCC4)cc(OC)c1OC (racemic)", "Acetylcholinesterase (Electrophorus electricus, UniProt O42275)", 41),
    ("Cc1ccc(C2c3ccc(O)cc3Oc3nc4c(c(N)c32)CCCC4)cc1 (racemic)", "Acetylcholinesterase (Electrophorus electricus, UniProt O42275)", 65),
]

----------
# Protocol notes: in vitro
# Condition parameters: human, HepG2 cells
# Description: Hepatotoxicity against human HepG2 cells assessed as cell viability at 100 uM after 24 hrs by MTT assay relative to control

# Compound, viability at 24 h, 100 µM, %
data = [
    ("COc1ccc(C2c3ccc(O)cc3Oc3nc4c(c(N)c32)CCCC4)cc1 (racemic)", 85.9),
    ("Cc1ccc(C2c3ccc(O)cc3Oc3nc4c(c(N)c32)CCCC4)cc1 (racemic)", 71.7),
    ("COc1cc(C2c3ccc(O)cc3Oc3nc4c(c(N)c32)CCCC4)cc(OC)c1OC (racemic)", 98.3),
    ("Nc1c2c(nc3c1C(c1ccc(Br)cc1)c1ccc(O)cc1O3)CCCC2 (racemic)", 74.4),
    ("Nc1c2c(nc3c1C(c1ccc(F)cc1)c1ccc(O)cc1O3)CCCC2 (racemic)", 55.5),
    ("Nc1c2c(nc3c1C(c1ccccc1)c1ccc(O)cc1O3)CCCC2 (racemic)", 55.8),
    ("CN(C)c1ccc(C2c3ccc(O)cc3Oc3nc4c(c(N)c32)CCCC4)cc1 (racemic)", 85.5),
]

----------
# Protocol notes: in vitro
# Condition parameters: human, HepG2 cells
# Description: Hepatotoxicity against human HepG2 cells assessed as cell viability at 10 uM after 24 hrs by MTT assay relative to control
Measure name: viability at 24 h, 10 µM (%)

# Compound, Value units, Quantitative result
measured = [
    ("COc1cc(C2c3ccc(O)cc3Oc3nc4c(c(N)c32)CCCC4)cc(OC)c1OC (racemic)", "%", 101),
    ("COc1ccc(C2c3ccc(O)cc3Oc3nc4c(c(N)c32)CCCC4)cc1 (racemic)", "%", 94.1),
    ("Nc1c2c(nc3c1C(c1ccc(F)cc1)c1ccc(O)cc1O3)CCCC2 (racemic)", "%", 62.8),
    ("Cc1ccc(C2c3ccc(O)cc3Oc3nc4c(c(N)c32)CCCC4)cc1 (racemic)", "%", 85.6),
    ("Nc1c2c(nc3c1C(c1ccc(Br)cc1)c1ccc(O)cc1O3)CCCC2 (racemic)", "%", 84.8),
    ("CN(C)c1ccc(C2c3ccc(O)cc3Oc3nc4c(c(N)c32)CCCC4)cc1 (racemic)", "%", 86.1),
    ("Nc1c2c(nc3c1C(c1ccccc1)c1ccc(O)cc1O3)CCCC2 (racemic)", "%", 66.2),
]

----------
# viability at 24 h, 300 µM listing for each entry below
# Protocol notes: in vitro
# Condition parameters: human, HepG2 cells
# Description: Hepatotoxicity against human HepG2 cells assessed as cell viability at 300 uM after 24 hrs by MTT assay relative to control

# Molecule, viability at 24 h, 300 µM / %
records = [
    ("Nc1c2c(nc3c1C(c1ccc(F)cc1)c1ccc(O)cc1O3)CCCC2 (racemic)", 50.1),
    ("Nc1c2c(nc3c1C(c1ccccc1)c1ccc(O)cc1O3)CCCC2 (racemic)", 49.6),
    ("Nc1c2c(nc3c1C(c1ccc(Br)cc1)c1ccc(O)cc1O3)CCCC2 (racemic)", 61.5),
    ("Cc1ccc(C2c3ccc(O)cc3Oc3nc4c(c(N)c32)CCCC4)cc1 (racemic)", 47.9),
    ("CN(C)c1ccc(C2c3ccc(O)cc3Oc3nc4c(c(N)c32)CCCC4)cc1 (racemic)", 80.3),
    ("COc1ccc(C2c3ccc(O)cc3Oc3nc4c(c(N)c32)CCCC4)cc1 (racemic)", 75.5),
    ("COc1cc(C2c3ccc(O)cc3Oc3nc4c(c(N)c32)CCCC4)cc(OC)c1OC (racemic)", 103),
]

----------
# Protocol notes: in vitro
# Condition parameters: human, HepG2 cells
# Description: Hepatotoxicity against human HepG2 cells assessed as cell viability at 30 uM after 24 hrs by MTT assay relative to control
Binary label based on viability at 24 h, 30 µM with cut-off 90%: below gives yes (1), not below gives no (0).

# Compound, Assigned label
rows = [
    ("CN(C)c1ccc(C2c3ccc(O)cc3Oc3nc4c(c(N)c32)CCCC4)cc1 (racemic)", "yes (1)"),
    ("Nc1c2c(nc3c1C(c1ccc(Br)cc1)c1ccc(O)cc1O3)CCCC2 (racemic)", "yes (1)"),
    ("Cc1ccc(C2c3ccc(O)cc3Oc3nc4c(c(N)c32)CCCC4)cc1 (racemic)", "yes (1)"),
    ("Nc1c2c(nc3c1C(c1ccccc1)c1ccc(O)cc1O3)CCCC2 (racemic)", "yes (1)"),
    ("COc1cc(C2c3ccc(O)cc3Oc3nc4c(c(N)c32)CCCC4)cc(OC)c1OC (racemic)", "no (0)"),
    ("Nc1c2c(nc3c1C(c1ccc(F)cc1)c1ccc(O)cc1O3)CCCC2 (racemic)", "yes (1)"),
    ("COc1ccc(C2c3ccc(O)cc3Oc3nc4c(c(N)c32)CCCC4)cc1 (racemic)", "no (0)"),
]

----------
# Assay target: Acetylcholinesterase (Electrophorus electricus, UniProt O42275)
# Sequence (O42275 whole entry): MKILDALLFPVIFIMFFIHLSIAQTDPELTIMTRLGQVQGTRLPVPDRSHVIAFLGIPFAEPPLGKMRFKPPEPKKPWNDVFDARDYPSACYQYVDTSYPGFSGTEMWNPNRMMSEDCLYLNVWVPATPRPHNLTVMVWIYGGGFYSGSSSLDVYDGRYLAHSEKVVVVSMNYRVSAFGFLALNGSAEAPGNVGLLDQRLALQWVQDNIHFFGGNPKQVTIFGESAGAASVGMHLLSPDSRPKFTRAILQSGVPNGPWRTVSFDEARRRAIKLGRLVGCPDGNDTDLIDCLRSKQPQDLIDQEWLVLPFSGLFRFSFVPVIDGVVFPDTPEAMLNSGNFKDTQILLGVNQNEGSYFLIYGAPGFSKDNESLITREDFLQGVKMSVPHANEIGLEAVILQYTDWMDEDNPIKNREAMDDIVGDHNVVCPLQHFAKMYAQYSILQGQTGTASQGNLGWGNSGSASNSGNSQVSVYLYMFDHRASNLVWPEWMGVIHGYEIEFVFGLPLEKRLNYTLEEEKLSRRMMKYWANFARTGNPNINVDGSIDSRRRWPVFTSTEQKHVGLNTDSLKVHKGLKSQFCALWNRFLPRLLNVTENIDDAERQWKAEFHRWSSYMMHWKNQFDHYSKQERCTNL
# Protocol notes: Noncompetitive inhibition of electric eel AchE using acetylcholine as substrate preincubated for 15 mins followed by substrate addition measured for 5 mins by Dixon plot analysis
pKi: −log10 of the molar value.

# Compound, pKi
rows = [
    ("COc1cc(C2c3ccc(O)cc3Oc3nc4c(c(N)c32)CCCC4)cc(OC)c1OC (racemic)", 7.33),
]

----------
# Protocol notes: in vitro
# Condition parameters: human, HepG2 cells
# Description: Hepatotoxicity against human HepG2 cells assessed as cell viability at 1 uM after 24 hrs by MTT assay relative to control
# viability at 24 h, 1 µM listing for each entry below

# Compound, viability at 24 h, 1 µM (%)
data = [
    ("Nc1c2c(nc3c1C(c1ccc(F)cc1)c1ccc(O)cc1O3)CCCC2 (racemic)", 91),
    ("COc1cc(C2c3ccc(O)cc3Oc3nc4c(c(N)c32)CCCC4)cc(OC)c1OC (racemic)", 102),
    ("Nc1c2c(nc3c1C(c1ccccc1)c1ccc(O)cc1O3)CCCC2 (racemic)", 99.5),
    ("Cc1ccc(C2c3ccc(O)cc3Oc3nc4c(c(N)c32)CCCC4)cc1 (racemic)", 96.9),
    ("CN(C)c1ccc(C2c3ccc(O)cc3Oc3nc4c(c(N)c32)CCCC4)cc1 (racemic)", 99),
    ("COc1ccc(C2c3ccc(O)cc3Oc3nc4c(c(N)c32)CCCC4)cc1 (racemic)", 97.3),
    ("Nc1c2c(nc3c1C(c1ccc(Br)cc1)c1ccc(O)cc1O3)CCCC2 (racemic)", 99),
]

----------
# Protocol notes: in vitro
# Condition parameters: human, HepG2 cells
# Description: Hepatotoxicity against human HepG2 cells assessed as cell viability at 3 uM after 24 hrs by MTT assay relative to control

# Compound, viability at 24 h, 3 µM, %
rows = [
    ("Nc1c2c(nc3c1C(c1ccc(Br)cc1)c1ccc(O)cc1O3)CCCC2 (racemic)", 87.4),
    ("Nc1c2c(nc3c1C(c1ccc(F)cc1)c1ccc(O)cc1O3)CCCC2 (racemic)", 75.1),
    ("CN(C)c1ccc(C2c3ccc(O)cc3Oc3nc4c(c(N)c32)CCCC4)cc1 (racemic)", 88.5),
    ("Cc1ccc(C2c3ccc(O)cc3Oc3nc4c(c(N)c32)CCCC4)cc1 (racemic)", 89.5),
    ("COc1cc(C2c3ccc(O)cc3Oc3nc4c(c(N)c32)CCCC4)cc(OC)c1OC (racemic)", 98.7),
    ("COc1ccc(C2c3ccc(O)cc3Oc3nc4c(c(N)c32)CCCC4)cc1 (racemic)", 96.8),
    ("Nc1c2c(nc3c1C(c1ccccc1)c1ccc(O)cc1O3)CCCC2 (racemic)", 67.4),
]
